Catalogue of molecules with associated Ratio pKb
assay: Selectivity ratio of pKb for rabbit vas deferens M1 receptor to pKb for guinea pig left atria M2 receptor
Please give only the number in your answer, with no unit.

Use these answered entries as a reference point.
# molecule, measurement
records = [
    ("CN(C)CC1COC(c2ccccc2)(c2ccccc2)O1 (stereo not given)", 1),
    ("C[C@@H]1OC(c2ccccc2)(c2ccccc2)O[C@@H]1CN(C)C (relative stereo)", 0.7),
    ("CN(C)C[C@@H]1CO[C@@H](C(c2ccccc2)c2ccccc2)O1", 2),
    ("CN(C)C[C@@H]1CO[C@H](C(c2ccccc2)c2ccccc2)O1 (relative stereo)", 5),
]

# query: Ratio pKb of entry C[C@H]1OC(c2ccccc2)(c2ccccc2)O[C@@H]1CN(C)C (relative stereo)
1
